Quick reference for displacement among some molecules
assayed.system: Bcl-2-like protein 10 (Homo sapiens)
test.protocol: TR3 peptide-Bcl-B binding displacers, biochemical primary FP assay, phenotype converters (AID 1240);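 note: 0% = Bcl-B with tracer peptide and DMSO and 100% = tracer peptide lacking Bcl-B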
test.parameters: GST-Bcl-B / FITC-TR3 peptide fluorescence polarization; stronger effect = higher value; compound at 3.75 mg/L
In all, about 50,000 compounds went through this assay and about 800 (1.6%) showed an effect of 50% or more. Many of the other results were omitted from the sample, so strong results are more common in it than they were.
Your answer should be a plain number; it is taken to be in %.

Observe how each entry below is paired with its result.
O=C(CN1C(=O)/C(=C/c2cccc(Br)c2)SC1=S)Nc1ccccn1 :: 69
O=C(O)CCCCCCCCCCN1C(=O)/C(=C/c2cccc(Br)c2)SC1=S :: -3.4
O=C(CN1C(=O)/C(=C/c2ccccc2)SC1=S)Nc1cccc(Br)c1 :: 11.9
O=C(CCN1C(=O)/C(=C/c2cccs2)SC1=S)Nc1cccnc1 :: 135
CN1CCN(C(=O)c2cnn3c(C(F)(F)F)cc(-c4ccco4)nc23)CC1 :: 6.4

input: Requested read-out displacement, target or system Bcl-2-like protein 10 (Homo sapiens), entry CCOc1ccc(C(=O)Nc2cccc(C(F)(F)F)c2)cc1Cl
output: -12

input: Requested read-out displacement, target or system Bcl-2-like protein 10 (Homo sapiens), entry COc1ccccc1CNC(=O)C/C(C)=N/NC(=O)C(=O)NC(C)C
output: -14.6

input: Requested read-out displacement, target or system Bcl-2-like protein 10 (Homo sapiens), entry COc1ccc(C2CC(C(F)(F)F)n3ncc(C(=O)NC(C)(C)C)c3N2)cc1 (stereo unspecified)
output: 3.6

input: Requested read-out displacement, target or system Bcl-2-like protein 10 (Homo sapiens), entry O=C(CCN1C(=O)/C(=C/c2cccs2)SC1=S)Nc1cccc(F)c1
output: -21.4

input: Requested read-out displacement, target or system Bcl-2-like protein 10 (Homo sapiens), entry O=C(O)CCCN1C(=O)/C(=C\c2cccc(O)c2)SC1=S
output: 0.6

input: Requested read-out displacement, target or system Bcl-2-like protein 10 (Homo sapiens), entry O=C(O)CCCN1C(=O)/C(=C/c2cccc(Br)c2)SC1=S
output: 91.2

---

assayed.system: Bcl-2-like protein 10 (Homo sapiens)
test.protocol: TR3 peptide-Bcl-B binding displacers, biochemical primary FP assay, phenotype converters (AID 1240);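 note: 0% = Bcl-B with tracer peptide and DMSO and 100% = tracer peptide lacking Bcl-B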
test.parameters: GST-Bcl-B / FITC-TR3 peptide fluorescence polarization; stronger effect = higher value; compound at 3.75 mg/L
Hit rate of the full screen: of about 50,000 compounds, about 800 (1.6%) showed an effect of 50% or more. The list comes from a sample in which strong results are over-represented; it also holds close analogues and randomly drawn compounds.
measured.attribute: displacement

Observe how each entry below is paired with its result.
CC1=NN(c2ccc(C(=O)O)cc2)C(=O)/C1=C\c1ccc(O)cc1 :: -50.5%
COC(=O)C(Cc1ccccc1)NC(=O)CCN1C(=O)c2cccc3cccc(c23)C1=O (stereo unspecified) :: 15%

input: Given CSc1ccc(/C=N/S(=O)(=O)CCc2ccccc2)cc1 , state its recorded displacement.
output: -7.7%

input: Given CC(NC(=O)c1ccccc1)C12CC3CC(CC(C3)C1)C2 (stereo unspecified) , state its recorded displacement.
output: 39.3%

input: Given CCCCOC(=O)c1sc2nc(N)c(C#N)c(-c3ccc(OC)c(OC)c3)c2c1N , state its recorded displacement.
output: 167%

input: Given Cc1ccccc1C(=O)N1CCN(c2nc3ccc([N+](=O)[O-])cc3s2)CC1 , state its recorded displacement.
output: 161%

---

assayed.system: Bcl-2-like protein 10 (Homo sapiens) (UniProt Q9HD36)
Sequence (Q9HD36 whole entry, looked up): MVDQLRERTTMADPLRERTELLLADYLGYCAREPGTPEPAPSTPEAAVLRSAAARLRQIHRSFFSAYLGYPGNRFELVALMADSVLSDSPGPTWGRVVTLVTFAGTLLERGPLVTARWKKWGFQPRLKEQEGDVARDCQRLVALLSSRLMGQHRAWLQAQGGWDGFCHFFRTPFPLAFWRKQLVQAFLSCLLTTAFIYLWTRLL
test.protocol: TR3 peptide-Bcl-B binding displacers, biochemical primary FP assay, phenotype converters (AID 1240);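 note: 0% = Bcl-B with tracer peptide and DMSO and 100% = tracer peptide lacking Bcl-B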
test.parameters: GST-Bcl-B / FITC-TR3 peptide fluorescence polarization; stronger effect = higher value; compound at 3.75 mg/L
In all, about 50,000 compounds went through this assay and about 800 (1.6%) showed an effect of 50% or more. The sample as a whole holds a higher share of strong results than the screen did.
Quick reference for displacement among some compounds
Your answer should be a plain number; it is taken to be in %.

O=C1OC(c2ccccc2F)=N/C1=C\c1cccc(I)c1 :: -0.4
COc1cccc(/C=C2/N=C(c3ccc(NC(C)=O)cc3)OC2=O)c1 :: 33.2
COc1ccc(C2=NC(=Cc3cccc4ccccc34)C(=O)O2)cc1 :: 108
Cc1no[n+]([O-])c1COc1ccc(/C=C2\NC(=S)NC2=O)cc1 :: -73.2
COc1ccc(C=C2C(=O)c3ccccc3C2=O)c(O)c1 :: 18.4

input: Given O=C1OC(c2ccccc2F)=N/C1=C\c1ccccc1[N+](=O)[O-] , state its recorded displacement.
output: 4.1

---

assayed.system: Bcl-2-like protein 10 (Homo sapiens) (UniProt Q9HD36)
test.protocol: TR3 peptide-Bcl-B binding displacers, biochemical primary FP assay, phenotype converters (AID 1240);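 note: 0% = Bcl-B with tracer peptide and DMSO and 100% = tracer peptide lacking Bcl-B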
test.parameters: GST-Bcl-B / FITC-TR3 peptide fluorescence polarization; stronger effect = higher value; compound at 3.75 mg/L
Hit rate of the full screen: of about 50,000 compounds, about 800 (1.6%) showed an effect of 50% or more. The full list was thinned out, with strong results kept by preference.
measured.attribute: displacement (%)
Your answer should be a plain number; it is taken to be in %.

CCOC(=O)C(=O)Nc1ccc(S(=O)(=O)Nc2nccc(C)n2)cc1 :: 27.4

input: Requested read-out displacement, target or system Bcl-2-like protein 10 (Homo sapiens) (UniProt Q9HD36), entry Cc1cc(C)c2nc3s/c(=C\c4ccc([N+](=O)[O-])cc4)c(=O)n3c2c1
output: -6.3

input: Requested read-out displacement, target or system Bcl-2-like protein 10 (Homo sapiens) (UniProt Q9HD36), entry CN(C)/C=C/C=C/C(=O)c1ccc(/C=C/C=C/N(C)C)o1
output: 36.1

input: Requested read-out displacement, target or system Bcl-2-like protein 10 (Homo sapiens) (UniProt Q9HD36), entry COc1ccc(N2C(=O)NC(=O)/C(=C/c3ccc(OCc4ccccc4F)cc3)C2=O)cc1
output: 63.1

input: Requested read-out displacement, target or system Bcl-2-like protein 10 (Homo sapiens) (UniProt Q9HD36), entry COc1ccc(N2C(=O)NC(=O)/C(=C/c3ccc(I)o3)C2=O)cc1
output: 3.6

input: Requested read-out displacement, target or system Bcl-2-like protein 10 (Homo sapiens) (UniProt Q9HD36), entry COc1ccc(NC(=O)CCN2C(=O)/C(=C/c3cccs3)SC2=S)cc1
output: 82.8

input: Requested read-out displacement, target or system Bcl-2-like protein 10 (Homo sapiens) (UniProt Q9HD36), entry O=C1NN(c2ccccc2)C(=O)/C1=C/c1ccc(-c2ccc(F)cc2)o1
output: 8.1

input: Requested read-out displacement, target or system Bcl-2-like protein 10 (Homo sapiens) (UniProt Q9HD36), entry Clc1ccc(CN2CCN(/N=C/c3ccc(Br)s3)CC2)cc1
output: 14.6

input: Requested read-out displacement, target or system Bcl-2-like protein 10 (Homo sapiens) (UniProt Q9HD36), entry O=C(/C=C/c1ccccc1)Nc1nnc(-c2ccncc2)s1
output: -6

input: Requested read-out displacement, target or system Bcl-2-like protein 10 (Homo sapiens) (UniProt Q9HD36), entry O=C(Nc1cccc(Br)c1)c1ccc([N+](=O)[O-])cc1
output: 12.7

input: Requested read-out displacement, target or system Bcl-2-like protein 10 (Homo sapiens) (UniProt Q9HD36), entry Cc1nc(-c2ccccc2)nc2[nH]c(-c3ccccc3)cc(=O)c12
output: 69.8

input: Requested read-out displacement, target or system Bcl-2-like protein 10 (Homo sapiens) (UniProt Q9HD36), entry Cc1ccc(N2C(=O)NC(=O)/C(=C/c3ccc(-c4ccc(F)cc4)o3)C2=O)cc1
output: 40.5

input: Requested read-out displacement, target or system Bcl-2-like protein 10 (Homo sapiens) (UniProt Q9HD36), entry Cc1oc2ccc(OCc3ccccc3Cl)cc2c1C(=O)O
output: 5.8

input: Requested read-out displacement, target or system Bcl-2-like protein 10 (Homo sapiens) (UniProt Q9HD36), entry O=C(CCCN1C(=O)/C(=C\c2cccs2)SC1=S)Nc1ccc(F)c(Cl)c1
output: 3.9

input: Requested read-out displacement, target or system Bcl-2-like protein 10 (Homo sapiens) (UniProt Q9HD36), entry COC(=O)C1=C(C(=O)OC)SC(=C2C(=S)C(C)(C)N(C(=O)c3cccc(C)c3)c3cc(OC)ccc32)S1
output: -7.2

input: Requested read-out displacement, target or system Bcl-2-like protein 10 (Homo sapiens) (UniProt Q9HD36), entry CCc1ccc(NC(=O)c2cncc(Br)c2)cc1
output: 15

input: Requested read-out displacement, target or system Bcl-2-like protein 10 (Homo sapiens) (UniProt Q9HD36), entry COC(=O)C1=CN(Cc2ccc(OC)cc2)C=C(C(=O)OC)C1c1cccs1
output: 2.9

input: Requested read-out displacement, target or system Bcl-2-like protein 10 (Homo sapiens) (UniProt Q9HD36), entry O=c1c(-c2ccccc2)coc2cc(OCc3ccccc3Cl)ccc12
output: 20.7

input: Requested read-out displacement, target or system Bcl-2-like protein 10 (Homo sapiens) (UniProt Q9HD36), entry CCN(CC)c1ccc(NC(=O)c2ccc(Br)cc2)cc1
output: 9.2

input: Requested read-out displacement, target or system Bcl-2-like protein 10 (Homo sapiens) (UniProt Q9HD36), entry CCOC(=O)C(C(=O)OCC)=C1Sc2ccccc2N1C
output: 13.4

input: Requested read-out displacement, target or system Bcl-2-like protein 10 (Homo sapiens) (UniProt Q9HD36), entry CCN(CC)c1ccc(NC(=O)c2cncc(Br)c2)cc1
output: 84.2

The measured values listed here are drawn from PubChem BioAssay AID1240.
